Listing of recorded glycan array binding signal (z-score) by entry.
# targetDesc: Neu5Gc(a2-8)Neu5Gc(a2-3)Gal(b1-4)GlcNAc
# testDescription: glycan array binding signal (z-score within array); higher = stronger binding
# setupConditions: glycan notation: IUPAC condensed, linker removed
Many of the other results were omitted from the sample, so the strongest signals are more common in it than they were.
readout: glycan array binding signal (z-score)

>>> val("UEA-I (Ulex europaeus), P22972 (protein) SDDLSFKFKNFSQNGKDLSFQGDASVIETGVLQLNKVGNNLPDETGGIARYIAPIHIWNCNTGEVASFITSFSFFMETSANPKAATDGLTFFLAPPDSPLRRAGGYFGLFEDTKDNDSSYQTVAVEFDTIGSPVNFDDPGFPHIGIDVNRVKSINAERWNKRYGLNNVANVEIIYEASSKTLTASLTYPSDQTSISVTSIVDLKEILPEWVSVGFSGGTYIGRQATHEVLNWYFTSNLINTNS")
-0.238
>>> val("DC-ASGPR L+GEE (Homo sapiens) (protein) MTRTYENFQYLENKVKVQGFKNGPLPLQSLLQRLRSGPCHLLLSLGLGLLLLVIICVVGFQNSKFQRDLVTLRTDFSNFTSNTVAEIQALTSQGSSLEETIASLKAEVEGFKQERQAGVSELQEHTTQKAHLGHCPHCPSVCVPVHSEMLLRVQQLVQDLKKLTCQVATLNNNGEEASTEGTCCPVNWVEHQDSCYWFSHSGMSWAEAEKYCQLKNAHLVVINSREEQNFVQKYLGSAYTWMGLSDPEGAWKWVDGTDYATGFQNWKPGQPDDWQGHGLGGGEDCAHFHPDGRWNDDVCQRPYHWVCEAGLGQTSQESH")
-0.146
>>> val("SP15308B-bot-339-22-339 (Bacteroides ovatus) (protein) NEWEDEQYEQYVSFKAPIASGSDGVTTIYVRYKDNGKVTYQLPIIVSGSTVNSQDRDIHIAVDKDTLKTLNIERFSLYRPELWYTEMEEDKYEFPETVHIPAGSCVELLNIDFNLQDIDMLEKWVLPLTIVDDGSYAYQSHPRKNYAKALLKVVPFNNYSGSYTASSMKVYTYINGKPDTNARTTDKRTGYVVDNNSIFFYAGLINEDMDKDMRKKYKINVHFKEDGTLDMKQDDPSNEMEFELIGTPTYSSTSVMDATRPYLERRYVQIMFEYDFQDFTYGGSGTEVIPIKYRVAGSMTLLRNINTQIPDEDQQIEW")
-0.454
>>> val("Nictaba (Nicotiana tabacum), Q94EW1 (protein) MQGQWIAARDLSITWVDNPQYWTWKTVDPNIEVAELRRVAWLDIYGKIETKNLIRKTSYAVYLVFKLTDNPRELERATASLRFVNEVAEGAGIEGTTVFISKKKKLPGELGRFPHLRSDGWLEIKLGEFFNNLGEDGEVEMRLMEINDKTWKSGIIVKGFDIRPN")
-0.388
>>> val("HFR-3 (Triticum aestivum) (protein) MKGLLLCALALAFAAVTTHAQLQSCPTRCGKQADGMECPNNLCCSKDGYCGLGVDYCSAGAGCQSGACYDNKICGAQANGTLCRNNHCCSSGGRCGYGREYCSNGCQGGPCWADLKCGHLDNGKLCPNNLCCSQYGYCGLGPEFCGTGCQNGACSTDKPCGNKANGAPCTNNYCCSQYGSCGLGKDYCGTGCQNGACN")
-0.961
>>> val("AMA (Arum maculatun) (protein) MAKLLLLLLLPAIVGLAVPRSAAAVGSNYMLSGETLNTDGRLTNGELTLIMQVDCNLVLYHGGWQSNTANNGRDCKLTLTDFGELVIKSGTGSTVWSSGSKQSMKGNYAAVVHPEGRLVIYGPSVFKINPSGAGLNGLPLRNIPLTNNMLFSGQVLYGDGTLSARNHKLVMQGDCNMVLYGGKYGWQSNTHGNGKYCFAMLTHKGELVIRDDDFKSVWSSKSSSKQGDYVFILQDDSLAIIYGPAVFSTGSKKMISMVTN")
-0.22
>>> val("LecRKVI.2 (protein) RTTTNFAFRGFNGNQSKIRIEGAAMIKPDGLLRLTDRKSNVTGTAFYHKPVRLLNRNSTNVTIRSFSTSFVFVIIPSSSSNKGFGFTFTLSPTPYRLNAGSAQYLGVFNKENNGDPRNHVFAVEFDTVQGSRDDNTDRIGNDIGLNYNSRTSDLQEPVVYYNNDDHNKKEDFQLESGNPIQALLEYDGATQMLNVTVYPARLGFKPTKPLISQHVPKLLEIVQEEMYVGFTASTGKGQSSAHYVMGWSFSSGGERPIADVLILSELPPPPPNKAKKEGLNS")
-0.395
>>> val("MAA (Maackia amurensis), P0DKL3 (protein) MATSNSKPTQVLLATFLTFFFLLLNNVNSSDELSFTINNFVPNEADLLFQGEASVSSTGVLQLTRVENGQPQKYSVGRALYAAPVRIWDNTTGSVASFSTSFTFVVKAPNPDITSDGLAFYLAPPDSQIPSGSVSKYLGLFNNSNSDSSNQIVAVELDTYFAHSYDPWDPNYRHIGIDVNGIESIKTVQWDWINGGVAFATITYLAPNKTLIASLVYPSNQTTFSVAASVDLKEILPEWVRVGFSAATGYPTEVETHDVLSWSFTSTLEANCDAATENNVHIARYTA")
0.744
>>> val("UDA (Urtica dioica), P11218 (protein) MMMRFLSAVVIMSSAMAVGLVSAQRCGSQGGGGTCPALWCCSIWGWCGDSEPYCGRTCENKCWSGERSDHRCGAAVGNPPCGQDRCCSVHGWCGGGNDYCSGSKCQYRCSSSVRGPRVALSGNSTANSIGNVVVTEPLFDQMFSHRKDCPSQGFYSYHSFLVAAESFPAFGTIGDVATRKREVAAFLAHISQATSGERSDVENPHAWGLCHINTTTVTENDFCTSSDWPCAAGKKYSPRGPIQLTHNFNYGLAGQAIGEDLIQNPDLVEKDPIISFKTALWFWMSQHDNKPSCHDIVLNANSAANRIPNKGVIGNIISRAFGHDDFAVRSSSIGFYKRYCDMLGVSYGHDLKYWFDNTPSSEFQRIQMRVAA")
-0.107
